System: OVCAR-5 ovarian
Assay: NCI tumour cell line growth inhibition, 48 h

>  <Molecule>
Clc1ccc(OCc2nn3c(CCCCc4nnc5sc(COc6ccc(Cl)cc6Cl)nn45)nnc3s2)c(Cl)c1

>  <GI50>
> 100 µM

$$$$
>  <Molecule>
CC1(C)CN(c2cc(C(F)(F)F)cc3cncn23)CCC12NC(=O)NC2=O (centres undefined)

>  <GI50>
66.1 µM

$$$$
>  <Molecule>
Nc1nonc1C(=Nc1ccc(F)c(Cl)c1)NO

>  <GI50>
53.2 µM

$$$$
>  <Molecule>
N#Cc1c(-c2ccccc2)cc(-c2ccccc2)n(CCCC(=O)NO)c1=O

>  <GI50>
2.3 µM

$$$$
>  <Molecule>
NCCCOc1cc2ccccc2cc1C(=O)NCCOc1nc2ccccc2cc1C(=O)Nc1ccc(Cl)cc1O

>  <GI50>
1.5 µM

$$$$
>  <Molecule>
CN(C)c1cc[n+](/C(NS(=O)(=O)c2cc(C(=O)Nc3ccc(Cl)cc3)c(Cl)cc2[S-])=C(\C#N)C(=O)c2ccccc2)cc1

>  <GI50>
22.7 µM

$$$$
>  <Molecule>
NCCCCCCCCCCn1c2c(c3ccccc3c1=O)C(=O)c1ccccc1-2

>  <GI50>
4.52 µM

$$$$
>  <Molecule>
COc1ccc(CC(C)=C(c2ccc(OCCN3CCCCCC3)cc2)c2ccc(OCCN3CCCCCC3)cc2)cc1

>  <GI50>
0.631 µM

$$$$
>  <Molecule>
CC(=O)NS(=O)(=O)c1ccc(-n2nc(-c3ccc(Cl)cc3)cc2-c2cc(O)ccc2O)cc1

>  <GI50>
20.1 µM

$$$$
